experiment: Inhibition of bacterial Metallo-beta-lactamase VIM-1 (unknown origin) assessed as substrate hydrolysis using meropenem as substrate by UV-visible spectrometry analysis; parameters: species or system Bacteria
Quantity Measured: Ki (nM)
Value expressed in nM; do not type the unit.

Example molecules with recorded Ki:
[
  {
    "Molecule": "S=c1[nH]nc(-c2ccccc2)n1CCCSc1ccccc1",
    "Scale Unit": "nM",
    "Reported Result": 2980
  },
  {
    "Molecule": "Fc1ccc(CSCCn2c(-c3ccccc3)n[nH]c2=S)cc1",
    "Scale Unit": "nM",
    "Reported Result": 2220
  },
  {
    "Molecule": "Nc1ccccc1SCCn1c(-c2ccccc2)n[nH]c1=S",
    "Scale Unit": "nM",
    "Reported Result": 470
  },
  {
    "Molecule": "S=c1[nH]nc(-c2ccccc2)n1CCSCCc1ccccc1",
    "Scale Unit": "nM",
    "Reported Result": 460
  },
  {
    "Molecule": "O=[N+]([O-])c1ccccc1CSCCn1c(-c2ccccc2)n[nH]c1=S",
    "Scale Unit": "nM",
    "Reported Result": 480
  },
  {
    "Molecule": "Fc1ccccc1CSCCn1c(-c2ccccc2)n[nH]c1=S",
    "Scale Unit": "nM",
    "Reported Result": 590
  },
  {
    "Molecule": "Fc1ccc(CSCCn2c(-c3ccccc3)n[nH]c2=S)c(F)c1",
    "Scale Unit": "nM",
    "Reported Result": 1330
  },
  {
    "Molecule": "Cn1cccc1-c1n[nH]c(=S)n1CCSCc1ccccc1",
    "Scale Unit": "nM",
    "Reported Result": 230
  },
  {
    "Molecule": "S=c1[nH]nc(-c2ccccc2)n1CCSc1cccc2ccccc12",
    "Scale Unit": "nM",
    "Reported Result": 480
  },
  {
    "Molecule": "O=C(O)C(SCCn1c(-c2ccccc2)n[nH]c1=S)c1ccccc1 (configuration not stated)",
    "Scale Unit": "nM",
    "Reported Result": 1650
  }
]

Query string: Input `S=c1[nH]nc(-c2ccccc2)n1CCOCc1ccccc1` , output reported Ki.
Result string: 1020

Query string: Input `O=C(O)CSCCn1c(-c2ccccc2)n[nH]c1=S` , output reported Ki.
Result string: 2360

====

test: Inhibition of bacterial Metallo-beta-lactamase VIM-1 (unknown origin) assessed as substrate hydrolysis using meropenem as substrate by UV-visible spectrometry analysis; parameters: species or system Bacteria
Below, each entry is listed alongside its reported pKi.
When answering, recall that pKi equals minus log10 of the concentration in mol/L, and write that number alone.

[
  {
    "Compound": "O=[N+]([O-])c1ccc(O)c(CSCCn2c(-c3ccccc3)n[nH]c2=S)c1",
    "Reported Result": 6.24
  },
  {
    "Compound": "Cc1ccccc1-c1n[nH]c(=S)n1CCSCc1ccccc1",
    "Reported Result": 6.40
  },
  {
    "Compound": "COc1ccc(O)c(-c2n[nH]c(=S)n2CCSCc2ccccc2)c1",
    "Reported Result": 6.74
  },
  {
    "Compound": "S=c1[nH]nc(-c2ccc(OCc3ccccc3)cc2)n1CCSCc1ccccc1",
    "Reported Result": 5.65
  },
  {
    "Compound": "O=C(O)C(CSCCn1c(-c2ccccc2)n[nH]c1=S)c1ccccc1 (stereo unspecified)",
    "Reported Result": 6.32
  },
  {
    "Compound": "Cc1nnc(SCCn2c(-c3ccccc3)n[nH]c2=S)s1",
    "Reported Result": 5.66
  }
]

Query string: Input `S=c1[nH]nc(-c2ccccc2)n1CCSc1ccccc1` , output reported pKi.
Result string: 5.90

Query string: Input `S=c1[nH]nc(-c2ccccc2)n1CCSCc1ccccc1` , output reported pKi.
Result string: 6.68

Query string: Input `O=[N+]([O-])c1ccc(CSCCn2c(-c3ccccc3)n[nH]c2=S)cc1` , output reported pKi.
Result string: 6.37

Query string: Input `O=C(O)CCSCCn1c(-c2ccccc2)n[nH]c1=S` , output reported pKi.
Result string: 5.70

Query string: Input O=C(O)C(CSCCn1c(-c2cccc(-c3ccccc3)c2)n[nH]c1=S)c1ccccc1 (stereo unspecified) , output reported pKi.
Result string: 5.86

====

biological target: Hydroxyacylglutathione hydrolase, mitochondrial (Homo sapiens); test: Inhibition of recombinant human Glyoxalase-2 assessed as reduction of substrate level using S-D-lactoylglutathione as substrate by spectrophotometric method
Quantity Measured: IC50
I'd appreciate it if you included the unit after the number.

Query string: Input `S=c1[nH]nc(-c2ccccc2)n1CCSCc1ccccc1` , output reported IC50.
Result string: 52 µM

====

system: HeLa; experiment: Cytotoxicity against human HeLa cells assessed as LDH release measured after 24 hrs by CytoTox96 nonradioactive assay; format: functional, cell-based
pIC50: −log10 of the molar value.
Quantity Measured: pIC50

[
  {
    "Molecule": "Cn1cccc1-c1n[nH]c(=S)n1CCSCc1ccccc1",
    "Test System": "HeLa",
    "pIC50": "< 3.60"
  }
]

Query string: Input O=C(O)C(CSCCn1c(-c2ccccc2)n[nH]c1=S)c1ccccc1 (stereo not drawn) , output reported pIC50.
Result string: < 3.60

Query string: Input `O=[N+]([O-])c1ccc(O)c(CSCCn2c(-c3ccccc3)n[nH]c2=S)c1` , output reported pIC50.
Result string: < 3.60

====

assay: Inhibition of bacterial Metallo-beta-lactamase VIM-2 (unknown origin) assessed as substrate hydrolysis using meropenem as substrate by UV-visible spectrometry analysis; parameters: species or system Bacteria
Below, each entry is listed alongside its reported pKi.
When answering, recall that pKi equals minus log10 of the concentration in mol/L, and write that number alone.

Example compounds with recorded pKi:
[
  {
    "Structure": "Nc1ccccc1SCCn1c(-c2ccccc2)n[nH]c1=S",
    "pKi": 5.94
  },
  {
    "Structure": "S=c1[nH]nc(-c2ccccc2)n1CCSc1cccc2ccccc12",
    "pKi": 6.00
  }
]

Query string: Input `O=C(O)CSCCn1c(-c2ccccc2)n[nH]c1=S` , output reported pKi.
Result string: 6.09

Query string: Input `Fc1ccc(CSCCn2c(-c3ccccc3)n[nH]c2=S)cc1` , output reported pKi.
Result string: 6.08

====

assay: Inhibition of bacterial Metallo-beta-lactamase VIM-2 (unknown origin) assessed as substrate hydrolysis using meropenem as substrate by UV-visible spectrometry analysis; parameters: species or system Bacteria
Below, each entry is listed alongside its reported Ki.
Value expressed in µM; do not type the unit.

Example compounds with recorded Ki:
[
  {
    "Structure": "Cc1ccccc1-c1n[nH]c(=S)n1CCSCc1ccccc1",
    "Ki [µM]": 0.8
  },
  {
    "Structure": "S=c1[nH]nc(-c2ccccc2)n1CCCSc1ccccc1",
    "Ki [µM]": 1.35
  }
]

Now consider the entry below.
Query string: Input `Fc1ccc(CSCCn2c(-c3ccccc3)n[nH]c2=S)c(F)c1` , output reported Ki.
Result string: 0.94

====

test: Inhibition of bacterial Metallo-beta-lactamase VIM-4 (unknown origin) assessed as substrate hydrolysis using meropenem as substrate by UV-visible spectrometry analysis; set-up: species or system Bacteria
Label fulfilled when Ki is strictly below 900 nM; otherwise label not fulfilled.

[
  {
    "Structure": "Fc1ccc(CSCCn2c(-c3ccccc3)n[nH]c2=S)c(F)c1",
    "Group": "not fulfilled"
  },
  {
    "Structure": "Nc1ccccc1SCCn1c(-c2ccccc2)n[nH]c1=S",
    "Group": "fulfilled"
  },
  {
    "Structure": "Cc1nnc(SCCn2c(-c3ccccc3)n[nH]c2=S)s1",
    "Group": "not fulfilled"
  },
  {
    "Structure": "Fc1ccc(CSCCn2c(-c3ccccc3)n[nH]c2=S)cc1",
    "Group": "not fulfilled"
  }
]

Query string: Check if Ki falls below 900 nM for `Cn1cccc1-c1n[nH]c(=S)n1CCSCc1ccccc1` .
Result string: fulfilled
